Ref: ChEMBL document CHEMBL1148379

molecular target: Bifunctional dihydrofolate reductase-thymidylate synthase (Plasmodium falciparum K1) (UniProt P13922); test: Inhibitory activity against double mutant dihydrofolate reductase (C59R S108N DHFR), relative to trimethoprim
Sequence (P13922 whole entry, looked up): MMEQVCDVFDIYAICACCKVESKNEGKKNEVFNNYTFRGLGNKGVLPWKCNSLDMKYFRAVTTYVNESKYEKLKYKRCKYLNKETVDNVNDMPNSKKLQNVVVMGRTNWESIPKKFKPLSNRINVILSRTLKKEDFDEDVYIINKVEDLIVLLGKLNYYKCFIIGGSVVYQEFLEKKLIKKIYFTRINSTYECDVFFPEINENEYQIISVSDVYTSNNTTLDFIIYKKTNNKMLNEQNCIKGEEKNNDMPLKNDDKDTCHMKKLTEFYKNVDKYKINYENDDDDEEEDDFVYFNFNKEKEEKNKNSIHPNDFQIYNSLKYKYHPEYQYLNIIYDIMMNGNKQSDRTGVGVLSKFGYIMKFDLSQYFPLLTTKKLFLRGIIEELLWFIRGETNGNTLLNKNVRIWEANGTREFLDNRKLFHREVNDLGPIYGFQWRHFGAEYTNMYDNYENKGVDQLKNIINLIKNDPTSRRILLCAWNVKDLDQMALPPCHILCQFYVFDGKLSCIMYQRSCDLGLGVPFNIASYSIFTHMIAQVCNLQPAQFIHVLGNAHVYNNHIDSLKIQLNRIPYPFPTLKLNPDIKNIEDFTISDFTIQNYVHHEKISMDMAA
attribute.measured: Relative activity
Answer using only a numeral; do not append any unit.

Data request: Tell me the measured Relative activity of COc1cc(Cc2c(C)nc(N)nc2N)ccc1OCc1ccccc1 , please.
Data returned: 0.4

Data request: Can you handle Nc1ncc(Cc2ccc(OCCCOc3ccccc3)cc2)c(N)n1 next?
Data returned: 0.7

Data request: Can you handle CCOc1ccc(Cc2cnc(N)nc2N)cc1OC next?
Data returned: 0.8

Data request: Can you handle COc1ccc(Cc2cnc(N)nc2N)cc1OC [DIAVERIDINE] next?
Data returned: 1

Data request: Can you handle CCCOc1cc(Cc2c(N)nc(N)nc2CC)ccc1OCc1cc(OC)c(OC)c(OC)c1 next?
Data returned: 0.2

Data request: Can you handle CCCCCCCOc1cc(Cc2cnc(N)nc2N)ccc1OC next?
Data returned: 0.4

Data request: Can you handle Nc1ncc(Cc2ccc(OCCCOCCCOc3ccccc3)cc2)c(N)n1 next?
Data returned: 0.45

Data request: Can you handle CCOc1cc(Cc2cnc(N)nc2N)ccc1OCCCOc1ccccc1 next?
Data returned: 0.2

Data request: Can you handle CCCCCOc1ccc(Cc2cnc(N)nc2N)cc1 next?
Data returned: 0.6

Data request: Can you handle CCCCCCCOc1ccc(Cc2cnc(N)nc2N)cc1 next?
Data returned: 0.8

Data request: Can you handle COc1ccc(Cc2cnc(N)nc2N)cc1 next?
Data returned: 1.9

Data request: Can you handle COc1ccc(Cc2cnc(N)nc2N)cc1OCc1ccccc1 next?
Data returned: 0.6
